Tested on: Hela, human cervical carcinoma
Assay: preliminary anti-tumor screening in vitro, MTT method
Type: cell-based
Conditions: 10 μM, read-out: inhibition rates (%) Hela
inhibition at 10 µM values, listed per item

MOLECULE: CC(C)C[C@H](NC(=O)N[C@@H](Cc1ccccc1)C(=O)N[C@@H](CC(C)C)C(=O)Nc1cnccn1)B(O)O
MEASURED TARGET: Hela, human cervical carcinoma
inhibition at 10 µM, %: 46

MOLECULE: CC(C)C[C@H](NC(=O)N[C@@H](Cc1ccccc1)C(=O)Nc1cccc(OCc2ccccc2)c1)B1OC2C[C@H]3C[C@H](C3(C)C)[C@@]2(C)O1 (stereo partly shown)
MEASURED TARGET: Hela, human cervical carcinoma
inhibition at 10 µM, %: 21.8

MOLECULE: CC(C)C[C@H](NC(=O)[C@H](Cc1ccccc1)NC(=O)NCc1ccccc1)B(O)O
MEASURED TARGET: Hela, human cervical carcinoma
inhibition at 10 µM, %: 53.5

MOLECULE: CC(C)C[C@H](NC(=O)N[C@@H](Cc1ccccc1)C(=O)Nc1cnccn1)B1OC2C[C@H]3C[C@H](C3(C)C)[C@@]2(C)O1 (stereo partly shown)
MEASURED TARGET: Hela, human cervical carcinoma
inhibition at 10 µM, %: 14.9

MOLECULE: CC(C)C[C@H](NC(=O)N[C@@H](Cc1ccccc1)C(=O)NCC1CCCO1)B(O)O (stereo partly shown)
MEASURED TARGET: Hela, human cervical carcinoma
inhibition at 10 µM, %: 19.2

MOLECULE: CC(C)C[C@H](NC(=O)N[C@@H](Cc1ccccc1)C(=O)N[C@@H](CC(C)C)C(=O)Nc1cnccn1)B1OC(C)(C)C(C)(C)O1
MEASURED TARGET: Hela, human cervical carcinoma
inhibition at 10 µM, %: 37.7

MOLECULE: COc1ccc(CNC(=O)[C@H](Cc2ccccc2)NC(=O)N[C@@H](CC(C)C)B(O)O)cc1
MEASURED TARGET: Hela, human cervical carcinoma
inhibition at 10 µM, %: 38.5
